Cited source: paper PMC12495306

- TARGET UNDER TEST: ARα2A (Homo sapiens)
- Sequence (P08913 whole entry): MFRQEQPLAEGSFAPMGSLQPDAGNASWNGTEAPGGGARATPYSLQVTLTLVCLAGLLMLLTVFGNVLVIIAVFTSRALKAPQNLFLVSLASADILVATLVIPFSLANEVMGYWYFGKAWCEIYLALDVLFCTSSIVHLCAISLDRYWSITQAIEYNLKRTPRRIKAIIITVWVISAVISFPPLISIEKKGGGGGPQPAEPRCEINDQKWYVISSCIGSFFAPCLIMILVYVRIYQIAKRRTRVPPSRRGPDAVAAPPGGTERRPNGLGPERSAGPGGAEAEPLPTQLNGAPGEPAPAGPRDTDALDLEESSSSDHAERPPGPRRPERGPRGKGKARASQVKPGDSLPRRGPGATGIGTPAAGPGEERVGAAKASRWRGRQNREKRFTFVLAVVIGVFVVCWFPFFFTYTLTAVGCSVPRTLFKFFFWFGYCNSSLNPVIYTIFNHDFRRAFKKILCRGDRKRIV
- TEST DETAILS: ARα2A radioligand
- Assay type: binding
- PARTICULARS: ARα2A Ki, rounded value
PROPERTY NAME: pKi
// field semantics: pKi = negative decimal log of concentration (mol/L)

So, CC1N=C(c2ccccc2F)c2cc(Nc3ccccc3)ccc2NC1=O (stereo not shown) ? Its pKi was 5.41

---

- Tested on: HEK293 cells
- TEST DETAILS: Cell viability / cytotoxicity assay
- Format: cell-based, human
- PARTICULARS: CellTiter-Glo, 18 h
PROPERTY NAME: Cytotoxicity LD50 (µM)
Response body: numeric value in µM, unit text excluded.

Answered examples (10):
- COc1ccccc1Nc1ccc2c(c1)C(c1ccccc1F)=NC(C)C(=O)N2 (stereo not drawn): 148
- CC1N=C(c2ccccc2F)c2cc(Nc3ccc(O)cc3)ccc2NC1=O (stereo not drawn): 135
- CC1N=C(c2ccccc2F)c2cc(Nc3cccc(C#N)c3)ccc2NC1=O (stereo not drawn): 165
- COC(=O)c1ccc(Nc2ccc3c(c2)C(c2ccccc2F)=NC(C)C(=O)N3)cc1 (stereo not drawn): 88
- CC1N=C(c2ccccc2F)c2cc(Nc3ccc([N+](=O)[O-])cc3)ccc2NC1=O (stereo not drawn): 61
- Cc1ccc(Nc2ccc3c(c2)C(c2ccccc2F)=NC(C)C(=O)N3)cc1 (stereo not drawn): 62
- CSc1ccc(Nc2ccc3c(c2)C(c2ccccc2F)=NC(C)C(=O)N3)cc1 (stereo not drawn): 63
- Cc1ccc(Nc2ccc3c(c2)C(c2ccccc2F)=NC(C)C(=O)N3)c(C)c1 (stereo not drawn): 88
- CC1N=C(c2ccccc2F)c2cc(Nc3ccccc3)ccc2NC1=O (stereo not drawn): 100
- CC1N=C(c2ccccc2F)c2cc(N(C)c3ccccc3)ccc2NC1=O (stereo not drawn): 158

So, Cc1cccc(Nc2ccc3c(c2)C(c2ccccc2F)=NC(C)C(=O)N3)c1 (stereo not drawn) ? Its Cytotoxicity LD50 was 109

So, CC1N=C(c2ccccc2F)c2cc(Nc3ccc(C#N)cc3)ccc2NC1=O (stereo not drawn) ? Its Cytotoxicity LD50 was 83
